TEST: growth inhibition of GSK3B-pretreated HCT116 cells – cell-based, CellTiter-Glo, 0.2 to 20 µM (AID 1117336)
RUN CONDITIONS: HCT116 viability after GSK3B inhibitor, at 20 µM, hits give high values
Kindly state viability decrease for each of the entries shown.
Kindly answer with a numeric value in %, unit omitted.

Sample CCCN[C@H]1CCc2nc(N)sc2C1 — what was its viability decrease?
7.2

Sample CC(=O)Nc1ccc(O)cc1 — what was its viability decrease?
9.25

Sample O=C(O)c1cc(=O)c2ccccc2o1 — what was its viability decrease?
-1.35

Sample C[C@H](NC(CCc1ccccc1)C(=O)O)C(=O)N1CCC[C@H]1C(=O)O (some centres not stated) — what was its viability decrease?
-6.3

Sample CC/C(=C(/CC)c1ccc(O)cc1)c1ccc(O)cc1 — what was its viability decrease?
90.8

Sample Cc1c(Nc2ncccc2C(=O)O)cccc1C(F)(F)F — what was its viability decrease?
-24.9

Sample Cc1cc(C)cc(OCC2CNC(=O)O2)c1 (configuration not stated) — what was its viability decrease?
4.3
